target: UniProtKB P21802; assay: FGFR wild type enzyme assay (HTRF KinEASE-TK), FGFR2; settings: Enz FGFR2 (nM), FGFR2 wild type enzyme
Reported IC50 is given for each of the following molecules.

>  <STRUCTURE_SMILES>
Cc1c(-c2cc(Sc3ncccc3F)c3c(C#N)cnn3c2)cnn1C[C@@H](C)N(C)C

>  <IC50 / nM>
7

$$$$
>  <STRUCTURE_SMILES>
Cc1c(-c2cc(Sc3ccccc3C#N)c3c(C#N)cnn3c2)cnn1C1CCN(CC(=O)N(C)C)CC1

>  <IC50 / nM>
0.5

$$$$
>  <STRUCTURE_SMILES>
CCN(C)[C@H]1CC[C@@H](n2ncc(-c3cc(Sc4ccccc4C#N)c4c(C#N)cnn4c3)c2C)CC1

>  <IC50 / nM>
1

$$$$
>  <STRUCTURE_SMILES>
CC(=O)N1C[C@@H]2[C@H](C1)[C@@H]2Cn1ncc(-c2cc(Sc3ncccc3F)c3c(C#N)cnn3c2)c1C

>  <IC50 / nM>
3

$$$$
>  <STRUCTURE_SMILES>
Cc1c(-c2cc(Sc3ccc(F)cc3C#N)c3c(C#N)cnn3c2)cnn1[C@H]1CC[C@@](C)(N)CC1

>  <IC50 / nM>
0.5

$$$$
>  <STRUCTURE_SMILES>
Cc1c(-c2cc(Sc3ncccc3F)c3c(C#N)cnn3c2)cnn1[C@@H](C)C1CCN(C)CC1

>  <IC50 / nM>
2

$$$$
>  <STRUCTURE_SMILES>
CC(=O)N1C[C@H]2C[C@@H](n3ncc(-c4cc(Sc5ncccc5F)c5c(C#N)cnn5c4)c3C)C[C@H]2C1

>  <IC50 / nM>
1.5

$$$$

* * *

biological target: FGFR2 (Homo sapiens, UniProt P21802); test: FGFR wild type enzyme assay (HTRF KinEASE-TK), FGFR2; conditions: Enz FGFR2 (nM), FGFR2 wild type enzyme assay
Sequence (P21802 399-821 limits assumed): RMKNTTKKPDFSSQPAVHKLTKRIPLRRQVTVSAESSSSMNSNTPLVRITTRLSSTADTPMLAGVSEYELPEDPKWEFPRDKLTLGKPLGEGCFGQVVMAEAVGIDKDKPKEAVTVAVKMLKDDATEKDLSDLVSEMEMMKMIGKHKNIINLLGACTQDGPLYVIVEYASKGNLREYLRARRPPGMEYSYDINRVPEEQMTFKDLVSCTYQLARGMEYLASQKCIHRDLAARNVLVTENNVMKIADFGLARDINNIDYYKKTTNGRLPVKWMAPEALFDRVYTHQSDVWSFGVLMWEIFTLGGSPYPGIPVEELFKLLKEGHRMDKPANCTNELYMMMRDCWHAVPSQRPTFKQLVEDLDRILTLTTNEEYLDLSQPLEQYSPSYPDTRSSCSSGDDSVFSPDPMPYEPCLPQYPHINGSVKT

>  <COMPOUND>
N#Cc1cc(F)ccc1Sc1cc(-c2ccc(N3CCNC(=O)C3)nc2)cn2ncc(C#N)c12 [Example 657]

>  <TARGET>
FGFR2 (Homo sapiens, UniProt P21802)

>  <READING_UNIT>
nM

>  <IC50>
3

$$$$
>  <COMPOUND>
Cc1c(-c2cc(Sc3ccc(F)cn3)c3c(C#N)cnn3c2)cnn1C1CCN(C(=O)[C@H](C)O)CC1 [Example 341]

>  <TARGET>
FGFR2 (Homo sapiens, UniProt P21802)

>  <READING_UNIT>
nM

>  <IC50>
9

$$$$
>  <COMPOUND>
Cc1c(-c2cc(Sc3ccc(F)cc3C#N)c3c(C#N)cnn3c2)cnn1C1CCN([C@H](C)CO)CC1 [Example 381]

>  <TARGET>
FGFR2 (Homo sapiens, UniProt P21802)

>  <READING_UNIT>
nM

>  <IC50>
1

$$$$
>  <COMPOUND>
N#Cc1ccccc1Sc1cc(-c2cnn(CC[C@@H](O)CO)c2)cn2ncc(C#N)c12 [Example 650]

>  <TARGET>
FGFR2 (Homo sapiens, UniProt P21802)

>  <READING_UNIT>
nM

>  <IC50>
1

$$$$
>  <COMPOUND>
N#Cc1ccccc1Sc1cc(-c2cnn([C@H]3CCNC(=O)C3)c2)cn2ncc(C#N)c12 [Example 592]

>  <TARGET>
FGFR2 (Homo sapiens, UniProt P21802)

>  <READING_UNIT>
nM

>  <IC50>
1

$$$$
>  <COMPOUND>
N#Cc1ccccc1Sc1cc(-c2ccc(N3CCO[C@H](CO)C3)nc2)cn2ncc(C#N)c12 [Example 649]

>  <TARGET>
FGFR2 (Homo sapiens, UniProt P21802)

>  <READING_UNIT>
nM

>  <IC50>
0.5

$$$$
>  <COMPOUND>
COC(=O)N1CCC(n2cc(-c3cc(Sc4ccccc4C#N)c4c(C#N)cnn4c3)cn2)CC1 [Example 481]

>  <TARGET>
FGFR2 (Homo sapiens, UniProt P21802)

>  <READING_UNIT>
nM

>  <IC50>
4

$$$$
>  <COMPOUND>
CC(C)(C)n1cc(-c2cc(Sc3ncccc3F)c3c(C#N)cnn3c2)cn1 [Example 489]

>  <TARGET>
FGFR2 (Homo sapiens, UniProt P21802)

>  <READING_UNIT>
nM

>  <IC50>
3

$$$$
>  <COMPOUND>
Cc1c(-c2cc(Sc3ccc(F)cc3C#N)c3c(C#N)cnn3c2)cnn1C1CCOCC1 [Example 666]

>  <TARGET>
FGFR2 (Homo sapiens, UniProt P21802)

>  <READING_UNIT>
nM

>  <IC50>
0.6

$$$$
>  <COMPOUND>
CC1(C)C[C@@H](n2cc(-c3cc(Sc4ncccc4F)c4c(C#N)cnn4c3)cn2)CN1 [Example 473]

>  <TARGET>
FGFR2 (Homo sapiens, UniProt P21802)

>  <READING_UNIT>
nM

>  <IC50>
1

$$$$
>  <COMPOUND>
Cc1cccc(C#N)c1Sc1cc(-c2cnn(C)c2)cn2ncc(C#N)c12 [Example 597]

>  <TARGET>
FGFR2 (Homo sapiens, UniProt P21802)

>  <READING_UNIT>
nM

>  <IC50>
30

$$$$
>  <COMPOUND>
Cc1nn([C@H]2CC[C@H](O)CC2)cc1-c1cc(Sc2ncccc2F)c2c(C#N)cnn2c1 [Example 442]

>  <TARGET>
FGFR2 (Homo sapiens, UniProt P21802)

>  <READING_UNIT>
nM

>  <IC50>
8

$$$$
>  <COMPOUND>
C[C@H](O)C(=O)N1CCC(n2cc(-c3cc(Sc4ccccc4C#N)c4c(C#N)cnn4c3)cn2)CC1 [Example 448]

>  <TARGET>
FGFR2 (Homo sapiens, UniProt P21802)

>  <READING_UNIT>
nM

>  <IC50>
0.3

$$$$
>  <COMPOUND>
CC1(C)C[C@H](n2cc(-c3cc(Sc4ccccc4C#N)c4c(C#N)cnn4c3)cn2)CN1 [Example 472]

>  <TARGET>
FGFR2 (Homo sapiens, UniProt P21802)

>  <READING_UNIT>
nM

>  <IC50>
0.3

$$$$
>  <COMPOUND>
COc1ccc(Sc2cc(-c3cnn(C4CCN(C)CC4)c3C)cn3ncc(C#N)c23)c(C#N)c1 [Example 379]

>  <TARGET>
FGFR2 (Homo sapiens, UniProt P21802)

>  <READING_UNIT>
nM

>  <IC50>
25

$$$$
>  <COMPOUND>
Cc1c(-c2cc(Sc3ccc(Cl)cc3C#N)c3c(C#N)cnn3c2)cnn1C1CCN(C)CC1 [Example 369]

>  <TARGET>
FGFR2 (Homo sapiens, UniProt P21802)

>  <READING_UNIT>
nM

>  <IC50>
5

$$$$

Source of measurements: patent US20240270741A1
